- Test system: cocklebur (Xanthium strumarium)
- METHOD SUMMARY: Postemergence herbicidal activity
- Type: in vivo
- MEASUREMENT SETUP: Table 1; rate 250 ppm; visual, after 2 weeks
MEASURED PARAMETER: Post-emergent % Control XANST (%)
Write down the numeric answer in % and omit the unit.

{"columns": ["MOL SMILES", "Post-emergent % Control XANST [%]"],
 "data": [
  ["C=CCNc1cc(Cl)nc(C(=O)O)c1Cl", 100]
]}

Q: Sample CC(C)Nc1cc(Cl)nc(C(=O)O)c1Cl — what was its Post-emergent % Control XANST?
Result: 95

Q: Sample COCCNc1cc(Cl)nc(C(=O)O)c1Cl — what was its Post-emergent % Control XANST?
Result: 80

Q: Sample Nc1c(Cl)c(C(=O)O)nc(Cl)c1Sc1ccccc1 — what was its Post-emergent % Control XANST?
Result: 60

Q: Sample CN(C)C=Nc1cc(Cl)nc(C(=O)O)c1Cl — what was its Post-emergent % Control XANST?
Result: 100

Q: Sample O=C(O)c1nc(Cl)cc(NCCO)c1Cl — what was its Post-emergent % Control XANST?
Result: 40
